Recorded values, source DBAASP.

- System: Bacillus subtilis 168
- Test Protocol: ≥ marks a high value that may be exact or a test limit, other limits are often not marked, values filed in µg/mL are converted to µM
Recorded MIC by entry
Lab book: enter the figure in µM, no units written.

Check out these entries, answers already filled in.
CC[C@H](C)[C@H](NC(=O)[C@@H](NC(=O)[C@@H]1CCCN1C(=O)[C@H](CC(C)C)NC(=O)[C@@H](NC(=O)[C@@H](N)CO)[C@@H](C)CC)[C@@H](C)O)C(=O)N[C@H](C(=O)N[C@@H](CO)C(=O)N[C@@H](Cc1ccccc1)C(=O)N[C@@H](CC(C)C)C(=O)N[C@@H](CO)C(=O)N[C@@H](CCCCN)C(=O)N[C@H](C(=O)N[C@@H](Cc1ccccc1)C(N)=O)C(C)C)C(C)C [SILPTIVSFLSKVF] :: 6.3
CC[C@H](C)[C@H](NC(=O)[C@H](CCCCN)NC(=O)[C@H](CCCCN)NC(=O)[C@H](Cc1c[nH]c2ccccc12)NC(=O)[C@H](CC(N)=O)NC(=O)[C@@H](N)C(C)C)C(=O)N[C@@H](CC(C)C)C(=O)NCC(=O)N[C@@H](CCCCN)C(=O)N[C@H](C(=O)N[C@H](C(=O)N[C@@H](CCCCN)C(=O)N[C@H](C(=O)N[C@H](C(=O)N[C@@H](CCCCN)C(=O)O)C(C)C)C(C)C)[C@@H](C)CC)[C@@H](C)CC [VNWKKILGKIIKVVK] :: 1.2

Please look at the following compound next.
Reported MIC of CC[C@H](C)[C@H](NC(=O)CN)C(=O)N[C@@H](CCSC)C(=O)N[C@@H](CO)C(=O)N[C@@H](CO)C(=O)N[C@@H](CC(C)C)C(=O)N[C@@H](CCSC)C(=O)N[C@@H](CCCCN)C(=O)N[C@@H](CCCCN)C(=O)N[C@@H](CC(C)C)C(=O)N[C@@H](CCCCN)C(=O)N[C@@H](CCCCN)C(=O)N[C@H](C(=O)N[C@H](C(=O)N[C@@H](C)C(=O)N[C@@H](CCCCN)C(N)=O)[C@@H](C)CC)[C@@H](C)CC [GIMSSLMKKLKKIIAK] : 7

----------
- Tested on: Acinetobacter baumannii
Result Type: MIC (µM)
Lab book: enter the figure in µM, no units written.

Here `CC(C)C[C@H](NC(=O)[C@H](Cc1c[nH]c2ccccc12)NC(=O)[C@H](CCCCN)NC(=O)[C@H](CC(C)C)NC(=O)[C@H](CC(C)C)NC(=O)[C@H](CCCCN)NC(=O)[C@H](CCCN=C(N)N)NC(=O)[C@H](Cc1c[nH]c2ccccc12)NC(=O)[C@H](CCCCN)NC(=O)[C@@H](N)CCCCN)C(=O)N[C@@H](C)C(=O)N[C@@H](CCCCN)C(=O)N[C@@H](CCCCN)C(N)=O` was tested on Acinetobacter baumannii, and its MIC came to 1.33

----------
Reported MIC values, Staphylococcus aureus AS1.72.
Lab book: enter the figure in µM, no units written.

CC[C@H](C)[C@H](N)C(=O)N[C@@H](CCCCN)C(=O)N[C@@H](CCCCN)C(=O)N[C@H](C(=O)N[C@@H](Cc1c[nH]c2ccccc12)C(=O)N[C@@H](CO)C(=O)N[C@@H](CCCCN)C(=O)N[C@H](C(=O)N[C@@H](CCCCN)C(=O)N[C@@H](CCCCN)C(=O)N[C@@H](Cc1c[nH]c2ccccc12)C(=O)N[C@@H](Cc1c[nH]c2ccccc12)C(=O)N[C@@H](CCCCN)C(=O)O)[C@@H](C)CC)[C@@H](C)CC :: 2.5

Please look at the following compound next.
Reported MIC of `CC(C)[C@H](N)C(=O)N[C@@H](Cc1c[nH]c2ccccc12)C(=O)N[C@@H](CCCN=C(N)N)C(=O)N[C@@H](CCCCN)C(=O)N[C@@H](Cc1c[nH]c2ccccc12)C(=O)N[C@@H](CCCN=C(N)N)C(=O)N[C@@H](CCCN=C(N)N)C(=O)N[C@@H](Cc1ccccc1)C(=O)N[C@@H](Cc1c[nH]c2ccccc12)C(=O)N[C@@H](CCCCN)C(=O)N[C@@H](CCCN=C(N)N)C(=O)O` : 6.25
